Target: full-length human RORγt (Homo sapiens (Human))
Sequence (P51449 other isoform, or with tags, fused parts or gaps): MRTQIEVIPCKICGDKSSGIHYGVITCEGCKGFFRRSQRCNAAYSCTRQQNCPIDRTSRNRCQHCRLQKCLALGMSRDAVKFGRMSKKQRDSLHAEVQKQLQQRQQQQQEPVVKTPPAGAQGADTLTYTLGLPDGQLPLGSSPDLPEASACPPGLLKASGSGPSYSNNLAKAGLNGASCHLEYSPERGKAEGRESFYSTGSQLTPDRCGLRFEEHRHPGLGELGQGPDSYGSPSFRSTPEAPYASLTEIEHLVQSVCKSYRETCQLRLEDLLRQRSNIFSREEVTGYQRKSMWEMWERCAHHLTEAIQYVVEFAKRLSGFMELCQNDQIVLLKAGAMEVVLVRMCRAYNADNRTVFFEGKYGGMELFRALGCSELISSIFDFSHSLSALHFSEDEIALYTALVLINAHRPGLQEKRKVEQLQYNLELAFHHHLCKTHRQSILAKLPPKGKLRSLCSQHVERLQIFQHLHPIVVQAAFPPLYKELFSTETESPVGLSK
Assay: RORγt (full-length human) reporter assay, Conditions B or C
Type: cell-based
Details: at 3 μM compound concentration; read-out: RORγt (FL) Reporter Assay B or C, % inhibition
Source text: RORγt (Full-Length Human) Reporter Assay: Cells used in this assay were transiently co-transfected with three different plasmids, one expressing the GAL4-DNA binding domain (DBD)-RORγt fusion protein under control of a CMV promoter (NH2-Gal4-DBD:RORC-COOH in pCMV-BD, Stratagene #211342), and two reporter plasmids—the firefly luciferase reporter under control of a GAL4 promoter (pFR-Luc 2×GAL4) and Renilla luciferase reporter under control of CMV promoter (pRL-CMV, Promega # E2261). […]
Assignment: determine reported inhibition at 3 µM for the given molecules.
Report the figure in % without appending any unit label.

Inquiry: Return reported inhibition at 3 µM; argument: C[C@H]1CCCN1C(=O)c1nc(C(=O)N2C[C@@H]3C[C@H]2CO3)sc1-c1cnc(NC(C)(C)C)cc1C(F)(F)F [Example 360]
Reply text: 106

Inquiry: Return reported inhibition at 3 µM; argument: CC[C@H](Nc1cc(C(F)F)c(-c2sc(C(=O)NC3CCS(=O)(=O)CC3)nc2C(=O)N2CC(F)(F)C[C@@H]2C)cn1)C(F)(F)F [Example 426]
Reply text: 96

Inquiry: Return reported inhibition at 3 µM; argument: C[C@H](Nc1cc(C(F)F)c(-c2sc(C(=O)N[C@H]3CCC[C@@H]3O)nc2C(=O)N2CCC[C@@H]2C)cn1)C(F)(F)F [Example 285]
Reply text: 104

Inquiry: Return reported inhibition at 3 µM; argument: CC[C@H](Nc1cc(C(F)F)c(-c2sc(C(=O)NC3CCOCC3)nc2C(=O)N2CCC[C@@H]2C)cn1)C(F)(F)F [Example 394]
Reply text: 114

Inquiry: Return reported inhibition at 3 µM; argument: C[C@H]1CCCN1C(=O)c1nc(C(=O)NCC(O)C(F)(F)F)sc1-c1cnc(NC(C)(C)C)cc1C(F)(F)F (stereo in doubt) [Example 352]
Reply text: 103

FYI, the data here is from patent US10975068B2.
